# tested-target: T1, human DLL3 extracellular domain (ECD) with C-terminal 8xHis tag and Avi tag (human, UniProt Q9NYJ7 27-492)
# T1 construct: extracellular domain; Expressed in Expi293, purified by IMAC and SEC; also called huDLL3; not shown: Avi tag
# T1 sequence: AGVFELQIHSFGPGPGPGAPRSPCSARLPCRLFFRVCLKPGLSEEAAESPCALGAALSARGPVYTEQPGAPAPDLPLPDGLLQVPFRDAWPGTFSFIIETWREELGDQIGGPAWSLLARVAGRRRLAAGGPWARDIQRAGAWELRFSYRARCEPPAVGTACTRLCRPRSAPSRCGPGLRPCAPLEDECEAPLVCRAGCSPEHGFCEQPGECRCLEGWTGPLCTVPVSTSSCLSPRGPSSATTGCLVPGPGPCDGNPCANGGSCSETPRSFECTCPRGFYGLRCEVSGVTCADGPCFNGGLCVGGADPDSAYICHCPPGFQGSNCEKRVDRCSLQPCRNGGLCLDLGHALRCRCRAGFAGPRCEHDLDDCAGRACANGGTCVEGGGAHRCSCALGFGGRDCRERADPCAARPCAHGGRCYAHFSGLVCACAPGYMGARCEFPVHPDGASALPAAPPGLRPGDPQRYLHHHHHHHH
# experimental-protocol: SPR (Biacore), 37 C; scFv-Fc captured on chip, human DLL3 ECD in solution; 1:1 Langmuir fit
Readings of Kd for the listed binders
// note: answer is a bare numeric in nM

26C8 scFv-Fc fusion (Fc fusion, not shown: a dimerising Fc or GST, scFv-Fc expressed in Expi293) scFv: QVQLQESGPGLVKPSETLSLTCTVSDNSISNYYWSWIRQPPGKGLEWIAYIYYSGTTNYNPSLKSRVTISLDTSKNQFSLQLSSVTAADAAVYYCARVFHWGFAFDIWGQGTMVTVSSGGGGSGGGGSGGGGSGGGGSEIVLTQSPGTLSLSPGERATLSCRASQRVSNTYLAWYQQNPGQAPRLLIYGASSRATGIPDRFSGSGSGTDFTLTISRLEPEDFAVYYCQQYGTSPLTFGGGTKVEIK : 5.53

Moving on to another binder below.
Request: I'd like to know its Kd. The binder in question is 9D3 scFv-Fc fusion (Fc fusion, not shown: a dimerising Fc or GST, scFv-Fc expressed in Expi293) scFv: QVQLQESGPGLVKPSETLSLTCTVSDDSISNYYWSWIRQPPGKGLEWIGYIFYSGTTNHNPSLKSRLTISLDKAKNQFSLRLSSVTAADTAVYYCARVFNWGFAFDIWGQGTMVTVSSGGGGSGGGGSGGGGSGGGGSEIVLTQSPGTLSLSPGERATLSCRASQRISRTYLAWYQQKPGQAPRLLIYGASSRATGIPDRFTGSGSGTDFTLTISRLEPEDFAVYYCQQYGTSPLTFGGGTKVEIN
Result: 23.3
